These entries and their values trace back to patent US9249163B2.

# TARGET OF ASSAY: Rat recombinant PDE10a (rPDE10a) (Rattus norvegicus (Rat), UniProt Q9QYJ6)
# Sequence (Q9QYJ6 whole entry): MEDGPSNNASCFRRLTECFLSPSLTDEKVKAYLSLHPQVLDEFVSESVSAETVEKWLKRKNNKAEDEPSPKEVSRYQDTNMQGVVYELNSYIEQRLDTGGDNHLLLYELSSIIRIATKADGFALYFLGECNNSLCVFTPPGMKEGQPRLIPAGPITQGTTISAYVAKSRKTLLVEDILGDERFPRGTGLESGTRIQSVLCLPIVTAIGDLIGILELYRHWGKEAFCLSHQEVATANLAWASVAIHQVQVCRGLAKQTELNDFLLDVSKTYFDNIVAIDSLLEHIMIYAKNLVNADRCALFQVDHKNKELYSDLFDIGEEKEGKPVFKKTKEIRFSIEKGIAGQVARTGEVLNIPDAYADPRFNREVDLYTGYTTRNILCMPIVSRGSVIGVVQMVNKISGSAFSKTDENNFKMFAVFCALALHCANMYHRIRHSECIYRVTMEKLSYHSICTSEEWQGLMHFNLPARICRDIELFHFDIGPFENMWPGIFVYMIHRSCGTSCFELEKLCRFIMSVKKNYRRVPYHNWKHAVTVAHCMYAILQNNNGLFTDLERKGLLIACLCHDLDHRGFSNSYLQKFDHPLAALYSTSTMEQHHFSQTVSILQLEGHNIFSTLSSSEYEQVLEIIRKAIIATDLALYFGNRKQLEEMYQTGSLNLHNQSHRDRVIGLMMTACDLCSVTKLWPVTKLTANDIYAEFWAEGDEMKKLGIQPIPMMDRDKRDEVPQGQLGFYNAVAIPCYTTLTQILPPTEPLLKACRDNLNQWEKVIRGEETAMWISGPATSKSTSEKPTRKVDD
# TEST DETAILS: In vitro assay PDE10a (rat recombinant PDE10a, SPA)
# TEST CONDITIONS: 60 nM cAMP, 60 min at rt, read-out: rPDE10a2 IC50
Structures can show the parent of a compound that is named as a salt.
QUANTITY NAME: pIC50
Please note pIC50 is a logarithmic value: minus log10 of concentration in mol/L. Answer with that number alone.

Some solved cases for reference:
Problem: Give the reported value of pIC50 for this record: NS(=O)(=O)N1CCC(c2cnc(N3CCOCC3)c3nc(COc4ccc5ccccc5n4)cn23)CC1 [Cpd 109, trifluoroacetic acid salt]
Solution: 7.06

Problem: Tell me measured pIC50 for O=C(O)Cn1cc(-c2cnc(N3CCOCC3)c3nc(C#Cc4ccc5ccccc5n4)cn23)cn1 please.
Solution: 8.70

Problem: In one line, give reported pIC50 of the entry COc1cccc(/C=C/c2cn3c(-c4ccc(C(=O)O)cc4)cnc(N4CCOCC4)c3n2)n1 .
Solution: 7.80

Problem: Identify measured pIC50 associated with O=C(O)C1CCN(c2ccc(-c3cnc(N4CCOCC4)c4nc(/C=C/c5ccc6ccccc6n5)cn34)cc2)CC1 [Cpd 14, trifluoroacetic acid salt]
Solution: 7.96

Problem: For the compound O=C(O)CNc1ccc(-c2cnc(N3CCOCC3)c3nc(/C=C/c4ccc5ccccc5n4)cn23)cn1 [Cpd 66, trifluoroacetic acid salt] , report pIC50.
Solution: 8.52

---
Problem: Item c1ccc2nc(OCc3cn4c(-c5ccc(N6CCNCC6)nc5)cnc(-c5ccncc5)c4n3)ccc2c1 [Cpd 120, trifluoroacetic acid salt] : provide pIC50
Solution: 7.82

Problem: Respond only with pIC50 recorded for c1ccc2nc(OCc3cn4c(-c5ccc(-c6nnn[nH]6)nc5)cnc(N5CCOCC5)c4n3)ccc2c1
Solution: 9.00

Problem: Identify measured pIC50 corresponding to c1ccc2nc(C3CN(c4cn5c(-c6ccc(N7CCNCC7)nc6)cnc(N6CCOCC6)c5n4)C3)ccc2c1 [Cpd 114, trifluoroacetic acid salt]
Solution: 5.70

###

# TARGET OF ASSAY: Human recombinant PDE10A2 (Homo sapiens (Human))
# Sequence (Q9Y233 267-1055): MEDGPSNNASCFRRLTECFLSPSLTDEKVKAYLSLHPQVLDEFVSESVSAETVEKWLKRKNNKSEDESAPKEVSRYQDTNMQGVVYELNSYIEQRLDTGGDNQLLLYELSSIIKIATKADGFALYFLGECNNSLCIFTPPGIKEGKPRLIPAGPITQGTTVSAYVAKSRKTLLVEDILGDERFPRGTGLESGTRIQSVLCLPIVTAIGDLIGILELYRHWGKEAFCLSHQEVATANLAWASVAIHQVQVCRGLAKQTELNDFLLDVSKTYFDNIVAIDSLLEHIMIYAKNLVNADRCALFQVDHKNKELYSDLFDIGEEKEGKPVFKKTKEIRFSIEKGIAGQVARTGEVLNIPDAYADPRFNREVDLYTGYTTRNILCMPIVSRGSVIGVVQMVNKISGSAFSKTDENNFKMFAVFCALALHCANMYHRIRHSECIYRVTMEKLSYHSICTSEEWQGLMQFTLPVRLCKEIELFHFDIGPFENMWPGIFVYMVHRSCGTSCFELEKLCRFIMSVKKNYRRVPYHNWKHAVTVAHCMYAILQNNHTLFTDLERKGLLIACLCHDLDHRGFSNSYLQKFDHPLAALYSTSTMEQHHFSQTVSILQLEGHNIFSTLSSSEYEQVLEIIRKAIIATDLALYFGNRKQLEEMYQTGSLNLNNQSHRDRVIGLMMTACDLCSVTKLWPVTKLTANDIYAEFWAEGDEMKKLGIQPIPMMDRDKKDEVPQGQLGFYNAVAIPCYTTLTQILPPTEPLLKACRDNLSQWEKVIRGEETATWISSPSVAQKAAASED
# TEST DETAILS: In vitro hPDE10a (human recombinant PDE10A2, scintillation proximity assay)
# TEST CONDITIONS: human recombinant PDE10A2, 60 nM cAMP, 60 min at room temperature; read-out: hPDE10a2 IC50
Structures can show the parent of a compound that is named as a salt.
QUANTITY NAME: IC50 (µM)
Kindly provide the numeric value in µM only, without the unit symbol.

The following compounds have reported results that may help.
Problem: Please report the measured IC50 for O=C(O)CCC(=O)Nc1ccc(-c2cnc(N3CCOCC3)c3nc(/C=C/c4ccc5ccccc5n4)cn23)cc1 [Cpd 32] tested on Human recombinant PDE10A2 (Homo sapiens (Human)).
Solution: 0.012

Problem: Give IC50 only, for Oc1ncn(-c2ccc(-c3cnc(N4CCOCC4)c4nc(CCc5ccc6ccccc6n5)cn34)cc2)n1 [Cpd 51] , using Human recombinant PDE10A2 (Homo sapiens (Human)) data.
Solution: 0.004

Problem: Enter IC50 (test system Human recombinant PDE10A2 (Homo sapiens (Human))) for c1ccc2nc(CCc3cn4c(-c5ccc(Sc6cnn[nH]6)cc5)cnc(N5CCOCC5)c4n3)ccc2c1 [Cpd 36]
Solution: 0.017

Problem: # return IC50 of c1ccc2nc(OCc3cn4c(-c5ccc(N6CCNCC6)nc5)cnc(N5CCOCC5)c4n3)ccc2c1 [Cpd 126] (system: Human recombinant PDE10A2 (Homo sapiens (Human)))
Solution: 0.034

Problem: Would you please give the reported IC50 of NS(=O)(=O)c1ccc(-c2cnc(N3CCOCC3)c3nc(COc4ccc5ccccc5n4)cn23)cc1 [Cpd 87] with Human recombinant PDE10A2 (Homo sapiens (Human))?
Solution: 0.001

Problem: Fill in IC50 for NS(=O)(=O)N1CCC(c2cnc(N3CCOCC3)c3nc(COc4ccc5ccccc5n4)cn23)CC1 [Cpd 109, trifluoroacetic acid salt] tested with Human recombinant PDE10A2 (Homo sapiens (Human)).
Solution: 0.11

Problem: GET IC50 where system = Human recombinant PDE10A2 (Homo sapiens (Human)) and item = O=C(NCCO)Nc1ccc(-c2cnc(N3CCOCC3)c3nc(/C=C/c4ccc5ccccc5n4)cn23)cc1 [Cpd 72]
Solution: 0.031

Problem: # lookup: Human recombinant PDE10A2 (Homo sapiens (Human)) IC50, key = CN1c2cc(-c3cnc(N4CCOCC4)c4nc(/C=C/c5ccc6ccccc6n5)cn34)ccc2NS1(=O)=O [Cpd 43, trifluoroacetic acid salt]
Solution: 0.003

Problem: Given COCOc1c(C)cc(-c2cnc(N3CCOCC3)c3nc(/C=C/c4ccc5ccccc5n4)cn23)cc1C [Cpd 41] , report its IC50 on Human recombinant PDE10A2 (Homo sapiens (Human)).
Solution: 0.019

Problem: Write down the reported IC50 (system: Human recombinant PDE10A2 (Homo sapiens (Human))) of NC(=O)c1ccc(-c2cnc(N3CCOCC3)c3nc(COc4ccc5ccccc5n4)cn23)cn1 [Cpd 84]
Solution: 0.016

More entries:
Problem: Look up and report IC50, with Human recombinant PDE10A2 (Homo sapiens (Human)) as system, for O=S1(=O)CCN(c2ncc(-c3ccc(N4CCNCC4)nc3)n3cc(COc4ccc5ccccc5n4)nc23)CC1 [Cpd 117, trifluoroacetic acid salt]
Solution: 0.056

Problem: Given C(=C\c1cn2c(-c3ccc(-c4nnn[nH]4)nc3)cnc(N3CCOCC3)c2n1)/c1ccc2ccccc2n1 [Cpd 96] , report its IC50 on Human recombinant PDE10A2 (Homo sapiens (Human)).
Solution: 0.003
